Target: SIX1 homeodomain (reference allele) (human, UniProt Q15475 108-198)
Sequence: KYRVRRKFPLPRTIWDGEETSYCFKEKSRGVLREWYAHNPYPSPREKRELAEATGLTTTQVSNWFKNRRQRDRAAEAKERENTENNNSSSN
Experiment: universal protein binding microarray; Universal all-10-mer PBM (8x60K, AMADID 030236), 300 nM GST-tagged protein, Alexa Fluor 488 anti-GST; buffer, salt, pH and temperature not stated (as in Berger); high values mean tight binding
Conditions: protein: ivt; tags: N-terminal GST; dsDNA, one strand shown
Over roughly 33,000 sequences, “e-score” has its median near -0.053; the highest 2% begin near 0.38. This excerpt belongs to a sample that is enriched for the highest values.
Just so you know, the groups by binding signal go like this: lower range = under 0.2 E-score, middle range = from 0.2 E-score up to 0.3 E-score, upper range = 0.3 E-score and over

sequence code	label
GCCGATAC	upper range
ATACATCG	middle range
CTCCAGGA	lower range
TATGCGGA	middle range
GATCCACC	upper range
ATAGTATC	upper range
CCGATGAG	lower range
ATAGTATG	middle range
ACCGATAG	upper range
ATCACCAG	lower range
GAATACTC	lower range
GTATTAAC	middle range
ACCGATAT	upper range
ATCGCTTG	lower range
CGTAATCC	middle range
CTAGTATC	upper range
CTAGTATA	middle range
CCCCGCGA	middle range
TATAACAA	middle range
GATCCTAA	middle range
